Assay: PSAC antagonists in infected red cells, primary screen, cell-based, P. falciparum Indochina, OD700, 18 h (AID 1157)
Settings: P. falciparum Indochina infected erythrocytes, osmotic lysis OD700, 18 h; higher = more signal, called active from +8 up or from −8 down
Tick true (1) if z-score is 0.2 or greater. Tick false (0) if z-score is less than 0.2.

[
  {
    "compound": "COCCOC(=O)N1C(=O)[C@@]2(c3ccccc31)[C@H](c1ccc(OCCO)cc1)N1[C@H](c3ccccc3)[C@H](c3ccccc3)OC(=O)[C@H]1[C@@H]2C(=O)N1CCN(c2ncccn2)CC1",
    "group": "true (1)"
  },
  {
    "compound": "[N-]=[N+]=NCc1ccccc1C[C@]1(C(=O)N2CCCCC2)N=C(c2ccc(OCCCO)cc2)O[C@H]1c1ccccc1",
    "group": "true (1)"
  },
  {
    "compound": "Cc1ccccc1C(O)C1C=CC2C(=O)N(c3ccccc3)C(=O)C2N1Nc1ccccc1F (stereo not given)",
    "group": "true (1)"
  },
  {
    "compound": "NC(=O)[C@@]1(CCS(=O)(=O)c2ccccc2)COC(c2ccc(OCCCO)cc2)=N1",
    "group": "true (1)"
  },
  {
    "compound": "COCCOC(=O)N1C(=O)[C@@]2(c3cc(C#CC4(O)CCCCCC4)ccc31)[C@H](C(=O)NC[C@H](O)c1ccccc1)[C@H]1C(=O)O[C@H](c3ccccc3)[C@H](c3ccccc3)N1[C@@H]2c1ccc(O)cc1",
    "group": "true (1)"
  },
  {
    "compound": "O=C1NC(=O)C2C1C=CC(C(O)c1ccc(F)cc1)N2Nc1ccccn1 (stereo not given)",
    "group": "true (1)"
  },
  {
    "compound": "NC(=O)NCC#Cc1ccc2c(c1)[C@]1(C(=O)N2)[C@H](C(=O)N2CCCCCCC2)[C@H]2C(=O)O[C@H](c3ccccc3)[C@H](c3ccccc3)N2[C@@H]1c1ccc(O)cc1",
    "group": "false (0)"
  },
  {
    "compound": "Cc1ccc(S[C@]2(C(=O)NCC(F)(F)F)CC(=O)N(C3CCCCC3)[C@@H]2c2ccc(CO)cc2)cc1",
    "group": "false (0)"
  },
  {
    "compound": "C=CCC(OC(C)=O)[C@@H]1[C@@H](N(Cc2ccc(-c3ccccc3)cc2)C(=O)c2ccc(C)cc2)c2cc(OCCCO)ccc2N1C(=O)c1ccc2ccccc2c1 (stereo not given in full)",
    "group": "false (0)"
  },
  {
    "compound": "CN(C)CCCC[C@@H]1NC(=O)[C@H]2C[C@@H](C(=O)NCc3ccc(F)cc3)[C@@H](c3ccc(O)cc3)N2C1=O",
    "group": "false (0)"
  },
  {
    "compound": "COc1ccc(CC[C@H](O)c2cccc(OCC(=O)OC(C)(C)C)c2)cc1",
    "group": "true (1)"
  },
  {
    "compound": "CC1CC/C=C\\[C@H]2OC34C=CCN(CCN5CCOCC5)C(=O)[C@H]3N(CCCCCCO)C(=O)[C@@H]4C2C(=O)O1 (stereo not given in full)",
    "group": "false (0)"
  },
  {
    "compound": "CCC[C@@H]1C=C(C(=O)OCC)[C@H](c2ccccc2)N1S(=O)(=O)c1ccc(C)cc1",
    "group": "false (0)"
  },
  {
    "compound": "CC[C@H](C)C(=O)O[C@H]1CC[C@]2(C)C3=C(CCC2C1(C)C)[C@]1(C)CC[C@H]([C@H](C)CCCC(C)C)[C@@]1(C)CC3 (stereo not given in full)",
    "group": "false (0)"
  },
  {
    "compound": "CCCC[C@@H](O)C1=C(COC)Cn2c(=O)n(-c3ccccc3)c(=O)n2[C@H]1CO",
    "group": "false (0)"
  }
]
